Biological target: Serine/threonine-protein kinase SIK3 (Homo sapiens, UniProt Q9Y2K2)
Assay: Affinity On-target Cellular interaction: (NanoBRET assay (HEK293T cells)) EUB0001479a SIK3
QUANTITY_KIND: pIC50
Bear in mind: pIC50 is minus log10 of a mol/L concentration; give just that figure.

Query: Notebook: pull reported pIC50 for Serine/threonine-protein kinase SIK3 (Homo sapiens, UniProt Q9Y2K2), entry CN(C)c1ncc2cc(-c3ccc(-c4ncccc4F)cc3Cl)c(=O)n(C[C@H]3OC[C@H](N)CO3)c2n1
Result: 4.85

* * *

Target: Casein kinase I isoform epsilon (Homo sapiens, UniProt P49674)
Assay: Affinity On-target Cellular interaction: (NanoBRET asssay (HEK293T cells)) EUB0001201a CSNK1E
Format: cell-based, HEK-293T
Set-up: mode of action Negative control for MU1742, recommended concentration 1 uM
QUANTITY_KIND: IC50

Query: Item CCc1ccc(-c2ncn(CC3(F)CCN(C)CC3)c2-c2ccnc3[nH]ccc23)nc1 has what recorded IC50?
Result: > 50 µM

* * *

Molecular target: Histone-arginine methyltransferase CARM1 (Homo sapiens, UniProt Q86X55)
Assay: Affinity On-target Cellular interaction: (Western Blot (dimethylation of BAF155, BAF155me2a/BAF155, in HEK293T cells)) EUB0000255b CARM1
QUANTITY_KIND: IC50

Query: Which IC50 value is on record for COCCN1CCC(c2cc(CN(C)C(=O)c3cccc(Oc4ccccc4)c3)ccn2)CC1 ?
Result: > 10 µM

* * *

Molecular target: Casein kinase I isoform epsilon (Homo sapiens)
Test: Affinity On-target Cellular interaction: (NanoBRET asssay (HEK293T cells)) EUB0001205a CSNK1E
Type: cell-based, HEK-293T
Set-up: mode of action Inhibitor, recommended concentration 1 uM
QUANTITY_KIND: IC50 (nM)
Write down the numeric answer in nM and omit the unit.

Query: What value of measured IC50 is listed for CN1CCC(F)(Cn2cnc(-c3ccc(F)cn3)c2-c2ccnc3[nH]ccc23)CC1 ?
Result: 220

* * *

Target: Nucleosome-remodeling factor subunit BPTF (Homo sapiens)
Assay: Affinity On-target Cellular interaction: (NanoBRET assay (NL-BPTF BD in HEK293 cells)) EUB0000233b BPTF
QUANTITY_KIND: EC50 (nM)
Form entry: value (nM) — number only.

Query: Please give the measured EC50 for this compound: CN(C)CCCOc1ccc(-c2cc(NCCCn3cccn3)nc(S(C)(=O)=O)n2)cc1
Result: 228

* * *

Target: Chromatin remodeling regulator CECR2 (Homo sapiens, UniProt Q9BXF3)
Sequence (Q9BXF3 whole entry): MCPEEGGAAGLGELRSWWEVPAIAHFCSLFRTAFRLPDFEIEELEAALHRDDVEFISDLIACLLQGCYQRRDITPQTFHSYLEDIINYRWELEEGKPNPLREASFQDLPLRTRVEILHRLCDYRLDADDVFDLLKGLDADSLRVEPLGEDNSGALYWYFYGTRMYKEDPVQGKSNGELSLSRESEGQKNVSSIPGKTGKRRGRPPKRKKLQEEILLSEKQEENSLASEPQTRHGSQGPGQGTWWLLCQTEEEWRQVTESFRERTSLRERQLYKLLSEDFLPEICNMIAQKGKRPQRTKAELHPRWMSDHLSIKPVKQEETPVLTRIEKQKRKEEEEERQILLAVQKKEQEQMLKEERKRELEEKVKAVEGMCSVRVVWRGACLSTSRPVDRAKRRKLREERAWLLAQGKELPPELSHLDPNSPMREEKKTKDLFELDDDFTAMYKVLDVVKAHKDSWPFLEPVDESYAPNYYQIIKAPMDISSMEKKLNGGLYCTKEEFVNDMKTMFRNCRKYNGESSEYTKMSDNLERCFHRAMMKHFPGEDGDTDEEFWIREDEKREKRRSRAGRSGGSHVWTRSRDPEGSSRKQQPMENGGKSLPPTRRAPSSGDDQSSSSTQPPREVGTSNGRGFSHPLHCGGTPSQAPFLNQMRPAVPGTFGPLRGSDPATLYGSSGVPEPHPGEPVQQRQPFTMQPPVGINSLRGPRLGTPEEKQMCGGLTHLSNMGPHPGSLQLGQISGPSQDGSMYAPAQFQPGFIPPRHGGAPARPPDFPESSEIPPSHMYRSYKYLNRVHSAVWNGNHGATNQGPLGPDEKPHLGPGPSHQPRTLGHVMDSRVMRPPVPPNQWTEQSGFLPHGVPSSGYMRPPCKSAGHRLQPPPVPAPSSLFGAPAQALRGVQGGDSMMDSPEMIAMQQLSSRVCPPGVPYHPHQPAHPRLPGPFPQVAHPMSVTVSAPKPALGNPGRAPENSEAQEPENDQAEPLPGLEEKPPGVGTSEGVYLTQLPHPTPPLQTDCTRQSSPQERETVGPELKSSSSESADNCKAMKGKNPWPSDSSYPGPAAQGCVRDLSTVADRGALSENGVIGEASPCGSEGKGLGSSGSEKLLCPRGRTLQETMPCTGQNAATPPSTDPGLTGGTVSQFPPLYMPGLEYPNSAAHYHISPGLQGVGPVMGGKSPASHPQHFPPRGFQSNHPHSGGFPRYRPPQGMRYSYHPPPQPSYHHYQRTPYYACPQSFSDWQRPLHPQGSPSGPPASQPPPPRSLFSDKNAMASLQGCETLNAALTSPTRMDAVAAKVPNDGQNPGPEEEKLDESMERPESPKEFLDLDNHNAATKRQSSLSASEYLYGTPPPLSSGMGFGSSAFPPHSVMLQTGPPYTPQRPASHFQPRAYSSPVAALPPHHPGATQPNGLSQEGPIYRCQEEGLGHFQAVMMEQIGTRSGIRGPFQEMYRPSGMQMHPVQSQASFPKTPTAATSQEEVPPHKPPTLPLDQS
Test: Affinity On-target Cellular interaction: (NanoBRET assay (NL-FL […] in HEK293 cells)) EUB0000233b CECR2
QUANTITY_KIND: EC50 (nM)
# output: bare number, implied unit nM

Query: Please look up its EC50: CN(C)CCCOc1ccc(-c2cc(NCCCn3cccn3)nc(S(C)(=O)=O)n2)cc1
Result: 289

* * *

Target: Cyclin-G-associated kinase (Homo sapiens)
Sequence (O14976 whole entry): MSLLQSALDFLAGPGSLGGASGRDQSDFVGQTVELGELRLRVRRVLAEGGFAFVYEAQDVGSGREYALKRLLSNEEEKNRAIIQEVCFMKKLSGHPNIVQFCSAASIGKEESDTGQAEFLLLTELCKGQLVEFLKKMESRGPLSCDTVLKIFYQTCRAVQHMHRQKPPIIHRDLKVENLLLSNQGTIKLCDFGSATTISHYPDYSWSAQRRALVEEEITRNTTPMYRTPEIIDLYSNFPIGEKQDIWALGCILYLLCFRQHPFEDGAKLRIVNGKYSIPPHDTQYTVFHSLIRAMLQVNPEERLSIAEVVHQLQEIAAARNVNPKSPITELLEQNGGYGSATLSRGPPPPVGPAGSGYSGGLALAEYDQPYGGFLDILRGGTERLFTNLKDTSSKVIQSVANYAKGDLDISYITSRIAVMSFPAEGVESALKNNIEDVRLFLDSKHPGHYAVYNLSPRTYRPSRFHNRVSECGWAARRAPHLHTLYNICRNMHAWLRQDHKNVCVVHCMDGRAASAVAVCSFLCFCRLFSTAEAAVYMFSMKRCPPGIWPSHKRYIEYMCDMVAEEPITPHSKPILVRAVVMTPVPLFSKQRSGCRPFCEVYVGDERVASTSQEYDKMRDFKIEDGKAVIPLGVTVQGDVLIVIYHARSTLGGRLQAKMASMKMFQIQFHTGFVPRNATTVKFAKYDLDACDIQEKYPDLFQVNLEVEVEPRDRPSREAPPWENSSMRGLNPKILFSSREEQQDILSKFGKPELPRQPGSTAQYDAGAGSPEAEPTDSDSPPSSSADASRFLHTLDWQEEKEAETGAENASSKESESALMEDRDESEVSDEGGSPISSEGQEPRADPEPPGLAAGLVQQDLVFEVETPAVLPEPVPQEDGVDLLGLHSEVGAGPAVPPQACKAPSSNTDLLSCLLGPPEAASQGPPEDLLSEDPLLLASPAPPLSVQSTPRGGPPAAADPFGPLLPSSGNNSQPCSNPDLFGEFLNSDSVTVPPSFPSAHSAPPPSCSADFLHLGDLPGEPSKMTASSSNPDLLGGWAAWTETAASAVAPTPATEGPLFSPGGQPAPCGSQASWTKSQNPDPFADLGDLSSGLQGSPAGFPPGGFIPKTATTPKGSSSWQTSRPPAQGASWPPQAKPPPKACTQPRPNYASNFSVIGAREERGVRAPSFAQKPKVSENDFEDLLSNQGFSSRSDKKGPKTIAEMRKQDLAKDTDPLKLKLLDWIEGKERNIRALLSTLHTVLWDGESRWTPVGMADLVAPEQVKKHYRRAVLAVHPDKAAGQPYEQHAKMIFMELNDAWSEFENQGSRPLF
Assay: Affinity On-target Cellular interaction: (NanoBRET assay (HEK293T cells)) EUB0000229b GAK
pIC50: −log10 of the molar value.
QUANTITY_KIND: pIC50

Query: Form field: reported pIC50 of COc1cc(N(C)c2ccnc3ccc(C(F)(F)F)cc23)cc(OC)c1OC
Result: < 5.30

* * *

Biological target: Receptor tyrosine-protein kinase erbB-2 (Homo sapiens)
Experiment: Affinity On-target Cellular interaction: (Western Blot (EGF-induced autophosphorylation of the chimera EGFR extracellular domain and erbB2 intracellular domain in NIH 3T3 cells)) EUB0000595a ERBB2
Conditions: nih3t3
QUANTITY_KIND: IC50 (µM)
A number alone suffices; assume µM.

Query: What does the record list as IC50 for COCC(=O)NC/C=C/c1ccc2ncnc(Nc3ccc(Oc4ccc(C)nc4)c(C)c3)c2c1 ?
Result: 0.032

* * *

Target: Dual specificity protein kinase CLK4 (Homo sapiens, UniProt Q9HAZ1)
Sequence (Q9HAZ1 whole entry): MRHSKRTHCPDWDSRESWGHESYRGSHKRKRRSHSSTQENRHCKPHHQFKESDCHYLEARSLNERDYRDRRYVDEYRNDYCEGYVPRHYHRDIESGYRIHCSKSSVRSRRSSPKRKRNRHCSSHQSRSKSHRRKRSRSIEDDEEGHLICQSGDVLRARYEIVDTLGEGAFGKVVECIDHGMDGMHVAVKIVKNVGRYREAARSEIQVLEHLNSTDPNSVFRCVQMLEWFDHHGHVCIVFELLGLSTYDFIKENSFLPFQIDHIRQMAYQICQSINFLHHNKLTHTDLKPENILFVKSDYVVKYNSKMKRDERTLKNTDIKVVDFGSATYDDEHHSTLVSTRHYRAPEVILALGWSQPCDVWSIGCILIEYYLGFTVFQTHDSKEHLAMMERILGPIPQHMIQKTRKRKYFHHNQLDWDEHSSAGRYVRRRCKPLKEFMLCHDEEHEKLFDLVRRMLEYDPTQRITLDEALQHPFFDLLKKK
Assay: Affinity On-target Cellular interaction: (NanoBRET assay (in HEK293T cells)) EUB0000008b CLK4
QUANTITY_KIND: Ki

Query: Entry under review: Cn1cc(-c2ccc3occ(-c4cccc(-c5ccncc5)c4)c3n2)cn1 . Reported Ki?
Result: 23 nM

* * *

Target: Dual specificity protein kinase CLK2 (Homo sapiens, UniProt P49760)
Sequence (P49760 whole entry): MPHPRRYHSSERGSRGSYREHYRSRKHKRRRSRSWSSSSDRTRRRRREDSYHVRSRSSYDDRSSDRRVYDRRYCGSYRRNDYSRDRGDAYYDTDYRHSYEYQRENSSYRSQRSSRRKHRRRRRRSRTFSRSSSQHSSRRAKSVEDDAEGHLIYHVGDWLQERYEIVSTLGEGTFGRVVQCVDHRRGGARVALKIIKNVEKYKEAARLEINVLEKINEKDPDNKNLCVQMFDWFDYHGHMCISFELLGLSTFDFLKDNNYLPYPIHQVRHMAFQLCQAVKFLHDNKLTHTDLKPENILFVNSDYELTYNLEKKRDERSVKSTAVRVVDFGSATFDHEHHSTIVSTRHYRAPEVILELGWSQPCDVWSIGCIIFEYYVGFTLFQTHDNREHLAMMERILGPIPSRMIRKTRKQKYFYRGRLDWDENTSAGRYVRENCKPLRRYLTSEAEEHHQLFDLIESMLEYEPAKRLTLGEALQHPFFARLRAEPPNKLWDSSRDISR
Test: Affinity On-target Cellular interaction: (NanoBRET assay (HEK293T cells)) EUB0001049a CLK2
pIC50: −log10 of the molar value.
QUANTITY_KIND: pIC50

Query: Fill in: pIC50 of COc1cc(Nc2nc(C)cc(-c3cnn4nc(OC)ccc34)n2)cc(C(F)(F)F)c1 is ___
Result: < 5.00

* * *

Molecular target: Serine/threonine-protein kinase SIK1 (Homo sapiens, UniProt P57059)
Assay: Affinity On-target Cellular interaction: (NanoBRET assay (HEK293T cells)) EUB0001479a SIK1
QUANTITY_KIND: pIC50
Notebook: values listed as pIC50 are -log10 of the concentration (mol/L).

Query: Request the reported pIC50 associated with CN(C)c1ncc2cc(-c3ccc(-c4ncccc4F)cc3Cl)c(=O)n(C[C@H]3OC[C@H](N)CO3)c2n1
Result: 4.85

* * *

Target: Cyclin-dependent kinase 7 (Homo sapiens, UniProt P50613)
Sequence (P50613 whole entry): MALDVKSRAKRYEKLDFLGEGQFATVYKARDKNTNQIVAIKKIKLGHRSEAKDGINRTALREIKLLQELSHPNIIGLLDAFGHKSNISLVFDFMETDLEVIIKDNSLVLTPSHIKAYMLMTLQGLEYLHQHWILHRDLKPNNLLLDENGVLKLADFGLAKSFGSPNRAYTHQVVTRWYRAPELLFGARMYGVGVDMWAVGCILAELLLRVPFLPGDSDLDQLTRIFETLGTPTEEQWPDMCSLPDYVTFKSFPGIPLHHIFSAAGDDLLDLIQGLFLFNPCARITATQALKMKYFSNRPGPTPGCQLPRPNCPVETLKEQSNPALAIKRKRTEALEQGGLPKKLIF
Assay: Affinity On-target Cellular interaction: (Radioactive in vitro kinase assays (from cellular wild-type CDK7 immunoprecipitated in HeLa cells)) EUB0001635a CDK7
QUANTITY_KIND: pIC50
As a rule, pIC50 stands for the negative log10 of the concentration, concentration in M.

Query: What does the data say about its pIC50? Entry: C=CC(=O)Nc1ccc(C(=O)Nc2n[nH]c3c2CN(C(=O)N[C@H](CN(C)C)c2ccccc2)C3(C)C)cc1
Result: 7.20

* * *

Molecular target: Dual specificity tyrosine-phosphorylation-regulated kinase 2 (Homo sapiens)
Sequence (Q92630 whole entry): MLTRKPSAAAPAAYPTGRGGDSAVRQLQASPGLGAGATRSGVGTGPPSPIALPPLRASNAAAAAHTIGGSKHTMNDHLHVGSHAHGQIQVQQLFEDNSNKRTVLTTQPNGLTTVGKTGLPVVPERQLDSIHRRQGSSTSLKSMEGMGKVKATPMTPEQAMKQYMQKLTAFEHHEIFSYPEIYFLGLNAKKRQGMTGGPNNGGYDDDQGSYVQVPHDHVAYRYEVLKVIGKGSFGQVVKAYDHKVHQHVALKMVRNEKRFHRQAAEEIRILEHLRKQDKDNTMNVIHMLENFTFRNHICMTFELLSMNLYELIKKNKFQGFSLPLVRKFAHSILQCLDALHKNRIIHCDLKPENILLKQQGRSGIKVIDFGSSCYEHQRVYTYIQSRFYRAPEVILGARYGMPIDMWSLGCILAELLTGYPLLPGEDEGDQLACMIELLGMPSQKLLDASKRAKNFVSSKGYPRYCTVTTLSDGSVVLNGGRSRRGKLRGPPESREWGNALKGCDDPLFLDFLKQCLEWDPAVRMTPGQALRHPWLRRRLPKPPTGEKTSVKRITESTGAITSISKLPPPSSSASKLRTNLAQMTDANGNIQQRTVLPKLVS
Assay: Affinity On-target Cellular interaction: (NanoBRET assay (in HEK293T cells)) EUB0000008b DYRK2
QUANTITY_KIND: pKi
Friendly reminder that pKi comes from taking -log10 of the concentration in mol/L.

Query: Look at this molecule and give its reported pKi. Cn1cc(-c2ccc3occ(-c4cccc(-c5ccncc5)c4)c3n2)cn1
Result: 5.77

* * *

Biological target: Serine/threonine-protein kinase SIK2 (Homo sapiens, UniProt Q9H0K1)
Sequence (Q9H0K1 whole entry): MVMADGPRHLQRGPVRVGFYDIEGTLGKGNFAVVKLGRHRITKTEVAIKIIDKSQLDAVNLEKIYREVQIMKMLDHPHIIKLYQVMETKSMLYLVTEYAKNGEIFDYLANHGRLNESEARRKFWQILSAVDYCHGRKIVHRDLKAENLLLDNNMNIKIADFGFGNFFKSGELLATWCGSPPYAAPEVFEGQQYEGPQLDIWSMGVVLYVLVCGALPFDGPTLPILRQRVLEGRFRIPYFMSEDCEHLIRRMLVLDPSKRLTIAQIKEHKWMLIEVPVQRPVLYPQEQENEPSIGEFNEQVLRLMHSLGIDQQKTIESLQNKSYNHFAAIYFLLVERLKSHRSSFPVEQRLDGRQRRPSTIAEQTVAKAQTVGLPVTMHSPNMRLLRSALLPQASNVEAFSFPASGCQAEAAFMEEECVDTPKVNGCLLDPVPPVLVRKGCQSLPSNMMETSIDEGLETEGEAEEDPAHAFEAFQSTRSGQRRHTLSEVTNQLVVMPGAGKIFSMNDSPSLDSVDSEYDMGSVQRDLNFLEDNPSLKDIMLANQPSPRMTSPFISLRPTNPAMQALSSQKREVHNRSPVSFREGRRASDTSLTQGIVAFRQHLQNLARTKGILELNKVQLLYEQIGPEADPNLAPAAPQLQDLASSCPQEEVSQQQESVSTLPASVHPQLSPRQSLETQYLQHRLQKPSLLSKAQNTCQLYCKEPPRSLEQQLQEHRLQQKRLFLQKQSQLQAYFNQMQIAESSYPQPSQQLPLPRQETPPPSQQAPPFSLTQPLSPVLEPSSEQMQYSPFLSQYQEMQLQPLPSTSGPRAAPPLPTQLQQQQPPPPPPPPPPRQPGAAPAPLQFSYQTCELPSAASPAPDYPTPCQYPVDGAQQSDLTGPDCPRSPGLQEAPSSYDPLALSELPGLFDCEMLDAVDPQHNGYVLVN
Assay: Affinity On-target Cellular interaction: (NanoBRET assay (HEK293T cells)) EUB0001479a SIK2
Assay type: cell-based, HEK-293T
Set-up: mode of action Negative control for MRIA9, recommended concentration 1 uM
QUANTITY_KIND: IC50
Enter the number, and then the unit.

Query: Return reported IC50; argument: CN(C)c1ncc2cc(-c3ccc(-c4ncccc4F)cc3Cl)c(=O)n(C[C@H]3OC[C@H](N)CO3)c2n1
Result: 14 µM

* * *

Biological target: Dual specificity protein kinase CLK1 (Homo sapiens)
Experiment: Affinity On-target Cellular interaction: (NanoBRET assay (HEK293T cells)) EUB0001049a CLK1
Assay type: cell-based, HEK-293T
Parameters: mode of action Negative control for SGC-CLK-1 (UNC-CAF-170 ), recommended concentration 1 uM
QUANTITY_KIND: IC50

Query: Requested field: IC50. Item: COc1cc(Nc2nc(C)cc(-c3cnn4nc(OC)ccc34)n2)cc(C(F)(F)F)c1
Result: > 10 µM

* * *

Target: Casein kinase I isoform delta (Homo sapiens, UniProt P48730)
Assay: Affinity On-target Cellular interaction: (NanoBRET asssay (HEK293T cells)) EUB0001205a CSNK1D
Assay type: cell-based, HEK-293T
Design: mode of action Inhibitor, recommended concentration 1 uM
QUANTITY_KIND: IC50 (nM)
Field format: number, assumed nM, no unit text.

Query: What measured IC50 goes with CN1CCC(F)(Cn2cnc(-c3ccc(F)cn3)c2-c2ccnc3[nH]ccc23)CC1 ?
Result: 47
